- System: SN12C renal
- assay_method_text: NCI-60 one-dose screen, 48 h (100 = growth as untreated, 0 = no growth, -100 = all killed)
- measurement_parameters: 10 µM unless noted
Compounds without any hit were thinned out: in the full panel of roughly 83,000, 20% have a hit. Active and inactive are the calls of the source. How the source made its calls: active means growth percent below 10; inactive means the rest.
Kindly supply the reported growth values for the records listed here.

Example entries begin here.
# compound, parameter, observed_result
records = [
    ("O=C(CCCCCCSc1nc(-c2ccccc2)cc(-c2ccc(Cl)cc2)n1)NO", "growth", "20.7% (inactive)"),
    ("CC(C)C(NC(=O)C1(NC(=O)OCc2ccccc2)CCCC1)C(=O)O (stereo not drawn)", "growth", "102% (inactive)"),
    ("C=CCn1c(C)nc2cc(Nc3nc(Cl)nc4ccccc34)ccc21", "growth", "97.3% (inactive)"),
    ("CCCCCCCC/C=C\\CCCCCCCCOc1ccccc1CC(=O)NCC[N+](C)(C)C", "growth", "67.5% (inactive)"),
    ("COc1ccc(-c2nc(SCCC(C)C)nc(N/N=C\\c3cccc([N+](=O)[O-])c3)c2C#N)cc1", "growth", "35.5% (inactive)"),
    ("CC(C)C(=O)Nc1n[nH]c2cc(-c3cccc(NS(=O)(=O)C4CC4)c3)ccc12", "growth", "77.7% (inactive)"),
]

Batch request: growth for each of the following compounds.
1. CC(C)CCC[C@@H](C)[C@H]1CC[C@H]2[C@@H](Nc3ccc(O)cc3)CCC[C@]12C
2. c1coc(-c2c3ccc(=[N+]4CCCCC4)cc-3oc3cc(N4CCCCC4)ccc23)c1
3. O=C(Nc1ccc(-n2cc(-c3ccncc3)c(-c3ccc(Cl)c(O)c3)n2)cc1)N1CCOCC1
4. COc1cc(C(=O)/C=C/c2c(-c3ccc(F)cc3)nc3sc(C)cn23)cc(OC)c1OC
5. C=C(C)[C@@H]1CC[C@]2(C(=O)NC3CCCCC3)CC[C@]3(C)[C@H](CC[C@@H]4[C@@]5(C)CCCNC(C)(C)[C@@H]5CC[C@]43C)[C@@H]12
6. O=c1ccn2nc3ccccc3c2[nH]1
7. CNC(=O)c1cc(Oc2ccc3nc(Nc4ccc(Cl)c(C(F)(F)F)c4)ccc3c2)ccn1
8. O=c1c2cc(F)ccc2sc2c(Nc3cccnc3)nc3ccccc3c12

*A*
["108% (inactive)", "-75.4% (active)", "99.2% (inactive)", "56.3% (inactive)", "61.6% (inactive)", "84.8% (inactive)", "71.1% (inactive)", "93.4% (inactive)"]

Dear colleague, could you send me growth for each of the items below? Thanks.
1. O=C(Nc1cccc(Cl)c1)c1cc(N=Nc2ccc([N+](=O)[O-])cc2Cl)ccc1O
2. c1ccc(-c2nc([P+](c3ccccc3)(c3ccccc3)c3ccccc3)c(N3CCOCC3)o2)cc1

*A*
82.1% (inactive)
1.32% (active)
